assayed-system: TYK2 (Homo sapiens)
Sequence (P29597 whole entry): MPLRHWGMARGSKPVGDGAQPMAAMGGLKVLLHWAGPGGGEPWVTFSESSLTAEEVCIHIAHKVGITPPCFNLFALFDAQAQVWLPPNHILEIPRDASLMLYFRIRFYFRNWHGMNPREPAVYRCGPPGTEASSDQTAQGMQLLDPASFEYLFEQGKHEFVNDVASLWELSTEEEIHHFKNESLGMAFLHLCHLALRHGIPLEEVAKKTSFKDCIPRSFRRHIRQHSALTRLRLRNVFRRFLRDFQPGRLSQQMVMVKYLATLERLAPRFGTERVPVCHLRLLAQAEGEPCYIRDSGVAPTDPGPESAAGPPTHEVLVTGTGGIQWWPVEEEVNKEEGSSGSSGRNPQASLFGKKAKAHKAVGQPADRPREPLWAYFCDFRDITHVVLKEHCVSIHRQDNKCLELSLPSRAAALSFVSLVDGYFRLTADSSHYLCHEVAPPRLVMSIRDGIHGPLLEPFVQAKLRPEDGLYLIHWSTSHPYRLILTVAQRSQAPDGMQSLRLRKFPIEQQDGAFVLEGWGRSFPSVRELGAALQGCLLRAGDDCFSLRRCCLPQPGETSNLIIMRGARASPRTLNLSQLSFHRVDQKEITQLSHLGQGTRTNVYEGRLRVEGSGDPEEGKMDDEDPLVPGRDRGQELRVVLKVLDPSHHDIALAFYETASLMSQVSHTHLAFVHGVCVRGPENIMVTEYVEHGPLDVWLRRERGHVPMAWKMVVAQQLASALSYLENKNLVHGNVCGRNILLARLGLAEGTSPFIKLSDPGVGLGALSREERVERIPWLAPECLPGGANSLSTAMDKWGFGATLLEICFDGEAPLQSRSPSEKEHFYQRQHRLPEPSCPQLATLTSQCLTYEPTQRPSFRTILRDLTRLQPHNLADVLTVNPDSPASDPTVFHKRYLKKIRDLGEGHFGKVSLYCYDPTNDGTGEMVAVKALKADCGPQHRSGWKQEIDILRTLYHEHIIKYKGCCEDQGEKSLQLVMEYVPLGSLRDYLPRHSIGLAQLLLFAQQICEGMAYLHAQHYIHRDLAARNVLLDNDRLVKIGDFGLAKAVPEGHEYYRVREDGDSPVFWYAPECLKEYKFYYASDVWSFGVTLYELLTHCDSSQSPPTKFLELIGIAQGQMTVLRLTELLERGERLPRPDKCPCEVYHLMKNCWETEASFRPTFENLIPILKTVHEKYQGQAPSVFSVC
assay-overview: TYK2 degradation MSD assay in human PBMC cells
Assay type: cell-based
Set-up: endogenous in cells; host or cells: human PBMC
experimental-setup: 4 to 24 hours incubation, read-out: TYK2 MSD DC50 rating in human PBMC
Give measured DC50 for each item. Keep answers brief.

**Q:** # returns recorded DC50 (system: TYK2 (Homo sapiens)) for COc1c(Nc2cc(Nc3ccc(C(=O)NCCCCc4cccc5c4n(C)c(=O)n5C4CCC(=O)NC4=O)cn3)ncc2C(=O)NC2CC2)cccc1-c1ncc(F)cn1 (centres unmarked)
**A:** 1 to 10 nM

**Q:** Here is the next molecule: CNc1cc(Nc2cccn(-c3ccc(C(=O)N4CCC(OC5CC(c6ccc7c(c6)n(C)c(=O)n7C6CCC(=O)NC6=O)C5)CC4)cn3)c2=O)nn2c(C(=O)N[C@@H]3C[C@@H]3F)cnc12 (some centres unmarked)
**A:** < 1 nM

**Q:** Then Cn1c(=O)n(C2CCC(=O)NC2=O)c2cccc(CCCCCCCCNc3cc(Nc4cccn(-c5ccccn5)c4=O)nn4c(C(=O)N[C@@H]5C[C@@H]5F)cnc34)c21 (some centres unmarked) ?
**A:** > 100 nM

**Q:** Here is the next molecule: CNc1cc(Nc2cccn(-c3cccc(C(=O)NCCOCCOCCOCCOCCOCCOCCc4ccc5c(c4)n(C)c(=O)n5C4CCC(=O)NC4=O)c3)c2=O)nn2c(C(=O)N[C@@H]3C[C@@H]3F)cnc12 (some centres unmarked)
**A:** > 100 nM

**Q:** Follow-up entry: CNc1cc(Nc2cccn(C3CCN(C(=O)NCCCCc4ccc5c(c4)n(C)c(=O)n5C4CCC(=O)NC4=O)CC3)c2=O)nc2c(C(=O)N[C@@H]3C[C@@H]3F)cnn12 (some centres unmarked)
**A:** > 100 nM

###

For each record, write down the corresponding DC50.
assayed-system: UniProt P29597
assay-overview: TYK2 degradation MSD assay in human PBMC cells
Type: cell-based
Parameters: endogenous in cells; host or cells: human PBMC
experimental-setup: 4 to 24 hours incubation, read-out: TYK2 MSD DC50 rating in human PBMC
Method: Example 3. TYK2 Degradation MSD Assay in EBV-B, OCI-LY10, and Human PBMC Cells Degradation of TYK2 in cells was quantitatively measured using Meso Scale Discovery (MSD) technology. […] The assay plates were then incubated at room temperature for 1 hour, washed 3 times with 150 μl/well TBST buffer, and 150 μl/well MSD reading buffer (MSD, R92TC-2) were added. The plates were then analyzed by an MSD reader. […]

**Q:** Field request: DC50 | item: CNc1cc(Nc2cccn(-c3cc(C(=O)NCCCCCCCCCCc4ccc5c(c4)n(C)c(=O)n5C4CCC(=O)NC4=O)ccn3)c2=O)nn2c(C(=O)N[C@@H]3C[C@@H]3F)cnc12 (some centres unmarked) [Example K233]
**A:** 0.001 to 0.01 µM

**Q:** And then CNc1cc(Nc2cccc(-c3ccc(CN4CCC(C#Cc5ccc6c(c5)n(C)c(=O)n6C5CCC(=O)NC5=O)CC4)cn3)c2)nn2c(C(=O)N[C@@H]3C[C@@H]3F)cnc12 (some centres unmarked) [Example K436] , what is it?
**A:** > 0.1 µM

**Q:** Check CNc1cc(-c2ccc(C3CCN(CC4CCN(c5ccc(-c6ccc7c(c6)n(C)c(=O)n7C6CCC(=O)NC6=O)cc5)CC4)CC3)cc2)c2n3c(cnc13)C(=O)N(C1CC1)C2 (centres unmarked) [Example K550] too.
**A:** > 0.1 µM

**Q:** // repeat for Cn1c(=O)n(C2CCC(=O)NC2=O)c2ccc(N3CCN(Cc4ccc(-c5cccc(Nc6ccc7ncc(C(=O)NC8CC8)n7n6)c5)nc4)CC3)cc21 (centres unmarked) [Example K406] and report
**A:** > 0.1 µM

**Q:** One more molecule: CNc1cc(Nc2cccn(-c3ccc(C(=O)N4CC5(CCN(c6ccc7c(c6)n(C)c(=O)n7C6CCC(=O)NC6=O)CC5)C4)cn3)c2=O)nn2c(C(=O)N[C@@H]3C[C@@H]3F)cnc12 (some centres unmarked) [Example K388]
**A:** > 0.1 µM
